test system: primary human fibroblasts derived from IPF patients (LL29 cells); experiment: Inhibition of the fibrotic process in TGF-β1-treated primary human fibroblasts from IPF patients (αSMA staining); format: cell-based; conditions: Fibroblast, 96 h, TGF-β1 20 ng/mL, 4 days, read-out: Inhibition of fibrosis EC50
Assay Endpoint: EC50

# compound Fc1cccc(-c2ccnc3[nH]c(-c4n[nH]c5cnc(-c6cnccn6)cc45)nc23)c1 [Compound 954] ; its EC50 = ≥ 9.99 µM

# compound Cc1cn(-c2ccnc3[nH]c(-c4n[nH]c5cnc(-c6cncc(CN7CCCC7)c6)cc45)nc23)cn1 [Compound 196] ; its EC50 = ≥ 9.99 µM

# compound CC(C)(C)C(=O)Nc1cncc(-c2cc3c(-c4nc5c(N6CCCCC6)ccnc5[nH]4)n[nH]c3cn2)c1 [Compound 164] ; its EC50 = ≤ 0.009 µM

# compound c1ccc(CNCc2cncc(-c3cc4c(-c5nc6c(-c7cccnc7)ccnc6[nH]5)n[nH]c4cn3)c2)cc1 [Compound 101] ; its EC50 = ≤ 0.009 µM

# compound O=C(Nc1cncc(-c2cc3c(-c4nc5c(-c6ccccn6)ccnc5[nH]4)n[nH]c3cn2)c1)c1ccccc1 [Compound 141] ; its EC50 = ≥ 9.99 µM

# compound Cc1ccc(-c2ccnc3[nH]c(-c4n[nH]c5cnc(-c6cncc(N)c6)cc45)nc23)s1 [Compound 367] ; its EC50 = ≤ 0.009 µM

# compound CCCCC(=O)Nc1cncc(-c2cc3c(-c4nc5c(-c6ccccn6)ccnc5[nH]4)n[nH]c3cn2)c1 [Compound 148] ; its EC50 = ≤ 0.009 µM

# compound c1ccc(CNCc2cncc(-c3cc4c(-c5nc6c(-c7ccsc7)ccnc6[nH]5)n[nH]c4cn3)c2)cc1 [Compound 283] ; its EC50 = > 10 µM

# compound CCCC(=O)Nc1cncc(-c2cc3c(-c4nc5c(-c6cc(F)cc(CNS(C)(=O)=O)c6)ccnc5[nH]4)n[nH]c3cn2)c1 [Compound 433] ; its EC50 = ≥ 9.99 µM

# compound CS(=O)(=O)NCc1cc(F)cc(-c2ccnc3[nH]c(-c4n[nH]c5cnc(-c6cncc(NC(=O)c7ccccc7)c6)cc45)nc23)c1 [Compound 427] ; its EC50 = ≥ 9.99 µM

# compound CN(C)CCOc1cncc(-c2cc3c(-c4nc5c(-c6cccc(F)c6)ccnc5[nH]4)n[nH]c3cn2)c1 [Compound 947] ; its EC50 = ≥ 9.99 µM

Data origin: patent US9815854B2
